# reported Potency; entries follow
targetOrSystem: Polyunsaturated fatty acid lipoxygenase ALOX12 (Homo sapiens) (UniProt P18054)
Sequence (P18054 whole entry, looked up): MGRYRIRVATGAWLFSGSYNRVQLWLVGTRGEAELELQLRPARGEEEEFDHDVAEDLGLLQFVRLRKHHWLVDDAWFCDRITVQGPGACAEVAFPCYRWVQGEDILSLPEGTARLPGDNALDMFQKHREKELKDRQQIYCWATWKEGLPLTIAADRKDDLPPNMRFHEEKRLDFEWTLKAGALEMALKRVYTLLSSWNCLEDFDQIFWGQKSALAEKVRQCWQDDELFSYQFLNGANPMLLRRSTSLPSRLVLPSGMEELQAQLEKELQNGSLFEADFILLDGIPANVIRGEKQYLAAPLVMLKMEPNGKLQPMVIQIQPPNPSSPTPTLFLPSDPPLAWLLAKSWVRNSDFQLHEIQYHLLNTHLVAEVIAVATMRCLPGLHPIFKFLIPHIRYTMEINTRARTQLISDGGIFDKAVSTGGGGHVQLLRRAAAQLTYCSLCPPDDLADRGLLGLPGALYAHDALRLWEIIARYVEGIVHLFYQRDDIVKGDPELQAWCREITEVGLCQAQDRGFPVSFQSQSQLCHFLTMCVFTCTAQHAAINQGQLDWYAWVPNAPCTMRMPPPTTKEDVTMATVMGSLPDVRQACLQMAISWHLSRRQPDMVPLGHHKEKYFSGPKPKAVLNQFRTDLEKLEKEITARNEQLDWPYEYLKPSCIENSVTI
protocolDetails: Inhibitors of 12-hLO (12-human lipoxygenase): Cuvette-Based Hit Assay for Validation of Followup Compounds
conditionContext: purified 12-hLO, cuvette absorbance 234 nm
Active and inactive are the calls of the source. The call rests on the fitted dose curve.

Answered examples (2):
compound: CCc1ccc(S(=O)(=O)/N=C2/C=C(Sc3ncn[nH]3)C(=O)c3ccccc32)cc1
Potency: 23.2 µM (active)

compound: N#CC1=C(N)Oc2n[nH]c(-c3cccs3)c2C1C1CCCCC1 (stereo not given)
Potency: 7.69 µM (active)

Input: Consider the compound shown here: CN(C)c1nccc(N(Cc2ccccc2)Cc2ccccc2)c1C#N What is its recorded Potency?
Output: 15.7 µM (active)

Input: Do the same for Oc1ccc(-c2csc(-c3ccccc3)n2)cc1O please
Output: 0.94 µM (active)

Input: Thanks! And CC1=NN(c2ccc(Cl)cc2)C(=O)C1C(c1ccccc1O)c1c(C)[nH]n(-c2ccc(Cl)cc2)c1=O (stereo not given) ?
Output: 18.9 µM (active)
